- Experimental Protocol: Metabolic stability in rat liver microsomes
- Format: in vitro ADME
- Measurement Context: rat liver microsomes, rat liver microsome
- Protocol: The experiment on the compound stability in rat liver microsomes was performed using compound 77 of the present invention as a representative example. Procedure: The mixed reaction solution containing reducing coenzyme II (1 mg/ml, Roche 10621706001), rat liver microsomes (0.5 mg/ml, BD Gentest), phosphate buffer (0.1M) and ionized water was prepared according to a certain ratio, and then the reaction solution was placed in a 37° C. water bath and preheated for 2 minutes. […]
Metric: half-life at 2 uM (h)
Lab book: enter the figure in h, no units written.

State the recorded half-life at 2 uM for this entry: COCCOc1ccc2c(c1)ncn2-c1ccc(NC(=O)Nc2cc(C(C)(C)C)n[nH]2)cc1 [Compound 77]
3.73

---

- Experimental Protocol: In vivo pharmacokinetics in rats
- Parameters: species or system rat
- Measurement Context: male, SD, rat, plasma, po, 10 mg/kg, orally, 10 mg/kg, individual animals 201-203, read-out: MRT(0-t)
- Protocol: The pharmacokinetic experiments in rats were performed using compound 77 of the present invention as a representative example. […] The pharmacokinetic parameters (AUC(0-t), AUC(0-∞), T1/2, MRT(0-∞), Cmax, Tmax and F) were calculated using WinNonlin Professional v5.2 (Pharsight USA). In addition, the bioavailability (F) was calculated by the following formula.
Counter-ions that a name gives are not always drawn.
Metric: MRT last (h)
Answer in h, number only, no unit symbol.

For COCCOc1ccc2c(c1)ncn2-c1ccc(NC(=O)Nc2cc(C(C)(C)C)n[nH]2)cc1 [Compound 77 Mesylate] , what is its reported MRT last?
5.61

---

This listing pairs molecules with measured efflux ratio at 2 h.
- Test system: P-gp
- Experimental Protocol: Bidirectional transmembrane transport and P-gp efflux in Caco-2 monolayer cell model
- Assay type: in vitro ADME
- Measurement Context: human, Caco-2, pH 7.4; Concentration 10, Inhibitor − (without P-gp inhibitor GF120918); read-out: Efflux Ratio Papp (B→A)/Papp (A→B)
Keep the answer to the number alone.

COCCOc1ccc2c(c1)ncn2-c1ccc(NC(=O)Nc2cc(C(C)(C)C)n[nH]2)cc1; 5.8

We now examine a further molecule.
I have this molecule here, C[C@H]1O[C@@H](O[C@H]2[C@@H](O)C[C@H](O[C@H]3[C@@H](O)C[C@H](O[C@H]4CC[C@@]5(C)[C@H](CC[C@@H]6[C@@H]5C[C@@H](O)[C@]5(C)[C@@H](C7=CC(=O)OC7)CC[C@]65O)C4)O[C@@H]3C)O[C@@H]2C)C[C@H](O)[C@@H]1O , and I need its recorded efflux ratio at 2 h.
322

---

- System: RS4; 11 (FLT3 wild type)
- Experimental Protocol: In vitro growth inhibition (GI50), RS4; 11
- Format: cell-based, human
- Measurement Context: Homo sapiens, RS4-11; Cell lines of leukemia; read-out: GI 50 RS4: 11 FLT3 (WT)
Entries annotated with measured GI50

CC(C)Oc1ccc2c(c1)ncn2-c1ccc(NC(=O)Nc2cc(C(C)(C)C)on2)cc1 [Compound 8]; > 1000 nM
CC(C)(C)c1cc(N)n(C(=O)Nc2ccc(-n3cnc4cc(OCCN5CCOCC5)ccc43)cc2)n1 [Compound 119]; > 1000 nM

GI50 for CC(C)(C)c1cc(NC(=O)Nc2ccc(-n3cnc4cc(Oc5nsnc5N5CCOCC5)ccc43)cc2)[nH]n1 [Compound 95] ?
> 1000 nM

For the compound shown here, CC(C)(C)c1cc(NC(=O)Nc2ccc(-n3cnc4cc(OCCN5CCCCC5)ccc43)cc2)no1 [Compound 17] , give the reported GI50.
100 to 1000 nM

// returns reported GI50 for input Cn1nc(C(C)(C)C)cc1NC(=O)Nc1ccc(-n2cnc3cc(OCCN4CCOCC4)ccc32)cc1 [Compound 102]
> 1000 nM

Value lookup for GI50; key = CCCCCCOc1ccc2c(c1)ncn2-c1ccc(NC(=O)Nc2cc(C(C)(C)C)n[nH]2)cc1 [Compound 73]
> 1000 nM

// GI50 lookup, key: CC(C)(C)c1cc(N)n(C(=O)Nc2ccc(-n3cnc4cc(C(F)(F)F)ccc43)cc2)n1 [Compound 126]
> 1000 nM

Any idea what GI50 was measured for Cc1csc(NC(=O)Nc2ccc(-n3cnc4ccccc43)cc2)n1 [Compound 61] ?
> 1000 nM

# query: GI50 of entry Nc1cc(C2CC2)nn1C(=O)Nc1ccc(-n2cnc3ccccc32)cc1 [Compound 114]
> 1000 nM

Find the recorded GI50 belonging to CC(C)(C)c1cc(NC(=O)Nc2ccc(-n3cnc4cc(OCCO)ccc43)cc2)no1 [Compound 11] and report it.
10 to 100 nM

---

- Tested on: Kasumi-1 (c-Kit N822K mutant type)
- Experimental Protocol: In vitro growth inhibition (GI50), Kasumi-1
- Type: cell-based
- Measurement Context: Homo sapiens, Cell lines of leukemia, read-out: GI 50 Kasumi-1 Kit (N822K)
Here the recorded GI50 is given for each entry.

// below: answered molecules
Cc1cc(NC(=O)Nc2ccc(-n3cnc4ccccc43)cc2)n[nH]1; > 1000 nM
CCCCCCOc1ccc2c(c1)ncn2-c1ccc(NC(=O)n2nc(C(C)(C)C)cc2N)cc1; > 1000 nM
CN1CCN(CCCOc2ccc3c(c2)ncn3-c2ccc(NC(=O)Nc3cc(C(C)(C)C)on3)cc2)CC1; 100 to 1000 nM

Then this molecule:
Form field: reported GI50 of CC(C)(C)c1cc(N)n(C(=O)Nc2ccc(-n3cnc4cc(OCC5CCCO5)ccc43)cc2)n1 (stereo not shown)
> 1000 nM

---

- Test system: MOLM-13 (FLT3 ITD+/− mutant type)
- Experimental Protocol: In vitro growth inhibition (GI50), MOLM-13
- Assay type: cell-based, human
- Measurement Context: Homo sapiens, MOLM-13; Cell lines of leukemia; read-out: GI 50 MOLM-13 FLT3 (ITD+/−)
Metric: GI50

O=C(Nc1ccc(-n2cnc3ccccc32)cc1)Nc1cc(C2CC2)n[nH]1; 10 to 100 nM

Return reported GI50; argument: CC(C)(C)c1cc(NC(=O)Nc2ccc(-n3cnc4cc(OCCN5CCOCC5)ccc43)cc2)no1
0.1 to 1 nM

Entry COc1ccc2ncn(-c3ccc(NC(=O)Nc4cc(C(C)(C)C)on4)cc3)c2c1 has what GI50?
0.1 to 1 nM

Suppose we examine the compound CNC(=O)c1cc(Oc2ccc3c(c2)ncn3-c2ccc(NC(=O)Nc3cc(C(C)(C)C)n[nH]3)cc2)ccn1 ; what GI50 value has been reported?
1 to 10 nM

I have this compound here, COc1ccc2c(c1)ncn2-c1ccc(NC(=O)Nc2cc(C(C)(C)C)on2)cc1 , and I need its recorded GI50.
0.1 to 1 nM

---

GI50: recorded values
- Test system: MOLM-13 (FLT3 ITD+/− mutant type)
- Experimental Protocol: In vitro growth inhibition (GI50), MOLM-13
- Format: cell-based, human
- Measurement Context: Homo sapiens, MOLM-13; Cell lines of leukemia; read-out: GI 50 MOLM-13 FLT3 (ITD+/−)

Some molecules with recorded GI50:
CC(C)(C)c1cc(NC(=O)Nc2ccc(-n3cnc4cc(OCCN5CCCCC5)ccc43)cc2)no1 [Compound 17]; 0.1 to 1 nM
CC(C)(C)c1cc(NC(=O)Nc2ccc(-n3cnc4cc(OCCOCCO)ccc43)cc2)no1 [Compound 14]; 0.1 to 1 nM

Proceeding to the next molecule to report its GI50.
Entry CC(C)(C)c1cc(NC(=O)Nc2ccc(-n3cnc4ccccc43)cc2)n(-c2ccc(OC(F)(F)F)cc2)n1 [Compound 107] has what GI50?
10 to 100 nM

---

Reported GI50 values follow for various molecules
- System: RS4; 11 (FLT3 wild type)
- Experimental Protocol: In vitro growth inhibition (GI50), RS4; 11
- Type: cell-based, human
- Measurement Context: Homo sapiens, RS4-11; Cell lines of leukemia; read-out: GI 50 RS4: 11 FLT3 (WT)
- Text: 1. Cell Lines and Cell Cultures Tumor cell line is an effective cell model for studying the inhibition of tumor cell growth or proliferation in vitro. […] The suspension cells were collected by centrifugation. The supernatant was discarded and the cell pellet was resuspended and counted. […] Dojindo CCK8 reagent kit was used as MTT assay. […] FC meter was used as microplate reader. […]

Form: Entry = CC1(COc2ccc3c(c2)ncn3-c2ccc(NC(=O)Nc3cc(C(C)(C)C)n[nH]3)cc2)COC1 [Compound 85] | System = RS4; 11 (FLT3 wild type) | GI50 = ____
> 1000 nM

Form: Entry = COc1cc2ncn(-c3ccc(NC(=O)Nc4cc(C(C)(C)C)on4)cc3)c2cc1OC [Compound 31] | System = RS4; 11 (FLT3 wild type) | GI50 = ____
100 to 1000 nM

Lab note: need GI50 with RS4; 11 (FLT3 wild type) for entry CCOCCOc1ccc2c(c1)ncn2-c1ccc(NC(=O)Nc2cc(C(C)(C)C)n[nH]2)cc1 [Compound 78] , please look it up.
> 1000 nM

Give recorded GI50 with RS4; 11 (FLT3 wild type) for the following molecule: COc1ccc2ncn(-c3ccc(NC(=O)Nc4cc(C(C)(C)C)on4)cc3)c2c1 [Compound 25]
> 1000 nM

Query GI50 on RS4; 11 (FLT3 wild type) for CC(C)(C)c1cc(NC(=O)Nc2ccc(-n3cnc4cc(OCCN5CCOCC5)ccc43)cc2)[nH]n1 [Compound 89]
> 1000 nM

Entry CCOc1ccc2c(c1)ncn2-c1ccc(NC(=O)Nc2cc(C(C)(C)C)n[nH]2)cc1 [Compound 72] , system RS4; 11 (FLT3 wild type): what GI50 was measured?
> 1000 nM
